systemTested: T1, His-tagged mouse B7-H3 (mouse, UniProt Q8VE98 29-244, limits assumed)
T1 construct: Bought His-tagged protein coated on the ELISA plate; also called mu B7-H3; murine B7-H3
T1 sequence (looked up): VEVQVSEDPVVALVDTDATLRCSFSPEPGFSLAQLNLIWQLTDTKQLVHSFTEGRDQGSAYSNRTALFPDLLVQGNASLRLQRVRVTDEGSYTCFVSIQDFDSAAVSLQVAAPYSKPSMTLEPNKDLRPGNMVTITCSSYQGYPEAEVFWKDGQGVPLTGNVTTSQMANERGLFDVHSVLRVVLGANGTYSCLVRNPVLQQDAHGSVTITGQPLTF
protocolDescription: ELISA, coated His-tagged antigen, scFv-Fc 1 ug/ml
assayEndpoint: ELISA OD450 @ 1 ug/ml

binder	ELISA OD450 @ 1 ug/ml
40633p1.1.G10 (scFv, V domains shown, Tested as scFv-Fc (Expi293 supernatant)) VH: EVQLLESGGGLVEPGGSLRLSCAASGFSFSSYGMHWVRQAPGKGLDWVAVINGEGSGTYYADSVKGRFTISRDNSKSTLYLQMNSLRAEDTAVYYCTKYYYNYAMDVWGQGTTVTVSS VL: QSVLTQPPSASGTPGQRVTISCSGSRTDIGTTSVNWYQQLPGTAPKLLIYQSHQRPSGVPDRFSGSKSGTSASLAISGLQSEDEADYYCASWDASQNTWVFGGGTKLTVL	1.67 OD450

Read the next record carefully.
Enquiry: State the recorded ELISA OD450 @ 1 ug/ml for this entry: 40511p1.2.A12 (scFv, V domains shown, Tested as scFv-Fc (Expi293 supernatant); also called 40511p1.2.Al2) VH: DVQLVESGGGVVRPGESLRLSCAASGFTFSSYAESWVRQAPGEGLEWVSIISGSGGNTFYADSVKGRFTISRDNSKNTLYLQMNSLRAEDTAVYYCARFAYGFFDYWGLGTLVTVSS VL: EIVLTQSPGTLSVSPGERATLSCRASQTVGSKLAWYQQKPGQPPSLLIYDASTRATGIPDRFSGSGSGTDFTLTISSLQSEDFAVYYCQQYRNWPPLTFGGGTKVEIK
Return: 1.7 OD450

Cited source for all entries: patent US20260008852A1
